tested-target: hMC1-R (human, UniProt Q01726)
Sequence (Q01726 whole entry): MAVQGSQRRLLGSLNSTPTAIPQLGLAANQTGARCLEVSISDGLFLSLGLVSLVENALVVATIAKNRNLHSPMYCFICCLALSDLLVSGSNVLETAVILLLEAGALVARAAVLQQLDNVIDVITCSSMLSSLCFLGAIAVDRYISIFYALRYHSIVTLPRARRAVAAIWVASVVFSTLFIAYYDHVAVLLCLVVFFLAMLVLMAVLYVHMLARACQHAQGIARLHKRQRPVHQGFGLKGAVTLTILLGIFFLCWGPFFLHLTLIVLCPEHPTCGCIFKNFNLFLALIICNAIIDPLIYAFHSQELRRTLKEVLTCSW
test-method-notes: competition
pKi: −log10 of the molar value. Bridges are numbered along the chain shown (N, C = ends). [ ]: non-standard residue; d: D form. d2Nal = N[C@H](Cc1ccc2ccccc2c1)C(=O)O; 3Pal = N[C@@H](Cc1cccnc1)C(=O)O; Nle = CCCC[C@H](N)C(=O)O; Bal = not defined here; GABA = NCCCC(=O)O
readout-name: pKi

a = Ac-[Nle]DH[d2Nal]RWAK-NH2 (lactam 2-8) [Ac-Nle-c(Asp-His-D-2-Nal-Arg-Trp-Ala-Lys)-NH2]
b = Ac-[Nle]D[dA]H[dF]R[Bal]K-NH2 (lactam 2-8; reading uncertain) [Ac-Nle-c(Asp-D-Ala-His-D-Phe-Arg-Bal-Lys)-NH2]
c = Ac-[Nle]C[3Pal][dF]RW[GABA]C-NH2 (disulfide 2-8) [Ac-Nle-c(Cys-3-Pal-D-Phe-Arg-Trp-Gaba-Cys)-NH2]
Reorder the items by pKi, least to greatest. To answer, arrange all of the labels according to the requested order.
c, b, a
